Data provenance is patent US20250228835A1.

Biological target: ABCA4 P1380L (Homo sapiens, UniProt P78363, P1380L)
Construct: expressed in transfected cells
Sequence (P78363 whole entry P1380L): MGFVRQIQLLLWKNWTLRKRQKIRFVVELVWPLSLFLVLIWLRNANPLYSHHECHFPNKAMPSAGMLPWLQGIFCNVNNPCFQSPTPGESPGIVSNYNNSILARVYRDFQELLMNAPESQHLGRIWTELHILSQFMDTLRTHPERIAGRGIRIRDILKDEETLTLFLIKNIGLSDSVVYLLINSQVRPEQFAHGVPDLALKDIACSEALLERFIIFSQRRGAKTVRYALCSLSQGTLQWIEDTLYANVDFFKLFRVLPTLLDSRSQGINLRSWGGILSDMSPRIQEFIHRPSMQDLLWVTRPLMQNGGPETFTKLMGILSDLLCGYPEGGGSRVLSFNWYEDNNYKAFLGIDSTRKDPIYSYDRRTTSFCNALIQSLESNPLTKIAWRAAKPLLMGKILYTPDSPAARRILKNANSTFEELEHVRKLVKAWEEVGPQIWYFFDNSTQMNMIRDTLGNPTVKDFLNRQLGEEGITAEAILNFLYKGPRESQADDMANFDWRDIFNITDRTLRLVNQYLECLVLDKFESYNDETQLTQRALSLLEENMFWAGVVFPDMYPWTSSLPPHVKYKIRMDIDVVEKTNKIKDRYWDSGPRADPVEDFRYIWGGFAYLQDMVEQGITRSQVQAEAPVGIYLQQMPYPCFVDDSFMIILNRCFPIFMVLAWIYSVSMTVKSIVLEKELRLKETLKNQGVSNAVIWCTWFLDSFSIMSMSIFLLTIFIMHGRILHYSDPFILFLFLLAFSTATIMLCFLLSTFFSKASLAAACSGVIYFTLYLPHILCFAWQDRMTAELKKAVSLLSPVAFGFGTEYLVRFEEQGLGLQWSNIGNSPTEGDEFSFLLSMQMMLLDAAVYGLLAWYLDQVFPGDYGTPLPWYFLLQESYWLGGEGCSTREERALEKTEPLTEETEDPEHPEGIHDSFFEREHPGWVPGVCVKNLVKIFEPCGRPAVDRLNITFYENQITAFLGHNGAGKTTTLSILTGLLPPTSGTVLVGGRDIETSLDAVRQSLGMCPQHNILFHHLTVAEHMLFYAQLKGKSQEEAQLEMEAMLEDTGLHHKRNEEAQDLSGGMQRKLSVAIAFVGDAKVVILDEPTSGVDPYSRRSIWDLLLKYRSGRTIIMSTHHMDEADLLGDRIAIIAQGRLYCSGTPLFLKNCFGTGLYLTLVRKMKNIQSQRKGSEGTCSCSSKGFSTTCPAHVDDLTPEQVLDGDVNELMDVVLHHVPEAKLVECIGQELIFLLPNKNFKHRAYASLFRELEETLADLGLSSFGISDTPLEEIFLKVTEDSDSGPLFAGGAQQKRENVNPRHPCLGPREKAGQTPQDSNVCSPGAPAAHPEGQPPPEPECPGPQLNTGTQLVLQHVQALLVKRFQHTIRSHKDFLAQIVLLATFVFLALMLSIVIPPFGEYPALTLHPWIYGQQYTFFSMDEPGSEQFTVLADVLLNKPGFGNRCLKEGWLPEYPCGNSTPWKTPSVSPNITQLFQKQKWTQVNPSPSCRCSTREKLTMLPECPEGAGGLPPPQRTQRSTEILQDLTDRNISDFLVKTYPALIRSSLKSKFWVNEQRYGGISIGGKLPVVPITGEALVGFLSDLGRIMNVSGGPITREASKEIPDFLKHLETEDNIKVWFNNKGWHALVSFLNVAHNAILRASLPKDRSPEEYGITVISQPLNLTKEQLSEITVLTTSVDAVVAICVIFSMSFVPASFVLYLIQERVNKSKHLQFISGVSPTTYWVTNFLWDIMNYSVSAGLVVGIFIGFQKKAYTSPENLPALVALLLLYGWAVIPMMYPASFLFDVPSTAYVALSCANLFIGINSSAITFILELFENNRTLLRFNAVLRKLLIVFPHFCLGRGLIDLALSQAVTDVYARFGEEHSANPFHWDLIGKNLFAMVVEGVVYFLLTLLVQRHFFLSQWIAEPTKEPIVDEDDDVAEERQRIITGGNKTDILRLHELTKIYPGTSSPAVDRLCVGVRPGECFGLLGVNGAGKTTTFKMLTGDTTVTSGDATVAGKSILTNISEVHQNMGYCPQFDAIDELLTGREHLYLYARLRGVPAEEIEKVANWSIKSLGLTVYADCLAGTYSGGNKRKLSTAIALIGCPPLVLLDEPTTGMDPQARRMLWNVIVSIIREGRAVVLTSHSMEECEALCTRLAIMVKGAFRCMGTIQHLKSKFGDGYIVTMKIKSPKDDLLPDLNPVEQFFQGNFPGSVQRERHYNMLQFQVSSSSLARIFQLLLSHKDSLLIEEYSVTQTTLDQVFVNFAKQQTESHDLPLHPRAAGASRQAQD
Test: A4 correction dose-response assay: ABCA4 P1380L HiBit protein expression
Assay type: cell-based
Settings: HEK-293 cells stably expressing HiBit-tagged ABCA4 P1380L; 24 h treatment; top concentration 30 μM; read-out: ABCA4 P1380L EC50, Emax
Procedure: Exemplary compounds were evaluated in an A4 correction dose-response assay. […] Dose response curves include eleven doses with the top final concentration at 30 μM in 0.3% DMSO. […] The plates are rotated at room temperature for 2 minutes and incubated for 1 hour at 25° C. before luminescent signal is acquired using an EnVision Multimode Plate Reader (PerkinElmer).
ASSAY_READOUT: EC50

Cc1cc(C)c(Oc2nc(-c3cncc(C#N)c3)ccc2NS(=O)(=O)c2cccnc2)c(C2CC2)n1 = < 1 µM
Cc1cc(Oc2nc(-c3cncc(C#N)c3)ccc2NS(C)(=O)=O)c(C)nc1C(F)(F)F = < 1 µM
Cc1cc(C)c(Oc2nc(-c3cncc(Cl)c3)ccc2S(=O)(=O)NCc2ccccn2)c(C2CC2)c1 = > 25 µM
CNS(=O)(=O)c1ccc(-c2cncc(C#N)c2)nc1Oc1c(C)nc(C(F)(F)F)nc1C = 1 to 10 µM
Cc1cc(C)c(Oc2nc(-c3cc(C#N)cnc3C)ccc2NS(C)(=O)=O)c(C)n1 = < 25 µM
CNS(=O)(=O)c1ccc(-c2cncc(C#N)c2)nc1Oc1c(C)cc(C(F)F)nc1C1CC1 = > 25 µM
Cc1cc(C)c(Oc2nc(-c3cnn(C)c3C)ccc2NS(C)(=O)=O)c(C)c1 = 1 to 10 µM
Cc1cc(C(F)(F)F)nc(C2CC2)c1Oc1nc(-c2cncc(C#N)c2)ccc1S(=N)(=O)c1cnccn1 (stereo not drawn) = 1 to 10 µM
Cc1nc(C(F)(F)F)cc(C2CC2)c1Oc1nc(-c2cncc(C#N)c2)ccc1N(C)S(C)(=O)=O = < 25 µM
Cc1cc(C)c(Oc2nc(-c3cncc(C#N)c3)ccc2NS(C)(=O)=O)c(C)n1 = < 1 µM

Shift focus to the following entry.
Request: // fetch ABCA4 P1380L (Homo sapiens, UniProt P78363, P1380L) EC50 for `Cc1cc(C)c(Oc2nc(-c3cn[nH]c3)ccc2NS(C)(=O)=O)c(C2CC2)c1`
Result: > 25 µM

----------
Catalogue of pEC50 readings, one per entry.
Target: ABCA4 P1380L (Homo sapiens, UniProt P78363, P1380L)
Construct: expressed in transfected cells
Test: A4 correction dose-response assay: ABCA4 P1380L HiBit protein expression
Type: cell-based
Details: HEK-293 cells stably expressing HiBit-tagged ABCA4 P1380L; 24 h treatment; top concentration 30 μM; read-out: ABCA4 P1380L EC50, Emax
pEC50: −log10 of the molar value.

Cc1cc(C)c(Oc2nc(-c3cnn(C)c3)ccc2NS(C)(=O)=O)c(C)c1 = < 4.60
Cc1cc(C)c(Oc2nc(N3CCN(C(=O)C4CC4)CC3)ccc2NS(C)(=O)=O)c(C2CC2)n1 = < 4.60
Cc1cc(C)c(Oc2nc(-c3cc[nH]c(=O)c3)ccc2NS(C)(=O)=O)c(C)n1 = < 4.60
Cc1cc(C)c(Oc2nc(-c3cncc(Cl)c3)ncc2NS(C)(=O)=O)c(C)c1 = < 4.60

Request: Reported pEC50, compound `Cc1cc(C)c(Oc2nc(N3CCC4(CN(C(=O)C5CC5)C4)C3)ccc2NS(C)(=O)=O)c(C)c1` : ____
Result: < 4.60

----------
Target: ABCB4 WT (Homo sapiens, UniProt P21439)
Sequence (P21439 whole entry): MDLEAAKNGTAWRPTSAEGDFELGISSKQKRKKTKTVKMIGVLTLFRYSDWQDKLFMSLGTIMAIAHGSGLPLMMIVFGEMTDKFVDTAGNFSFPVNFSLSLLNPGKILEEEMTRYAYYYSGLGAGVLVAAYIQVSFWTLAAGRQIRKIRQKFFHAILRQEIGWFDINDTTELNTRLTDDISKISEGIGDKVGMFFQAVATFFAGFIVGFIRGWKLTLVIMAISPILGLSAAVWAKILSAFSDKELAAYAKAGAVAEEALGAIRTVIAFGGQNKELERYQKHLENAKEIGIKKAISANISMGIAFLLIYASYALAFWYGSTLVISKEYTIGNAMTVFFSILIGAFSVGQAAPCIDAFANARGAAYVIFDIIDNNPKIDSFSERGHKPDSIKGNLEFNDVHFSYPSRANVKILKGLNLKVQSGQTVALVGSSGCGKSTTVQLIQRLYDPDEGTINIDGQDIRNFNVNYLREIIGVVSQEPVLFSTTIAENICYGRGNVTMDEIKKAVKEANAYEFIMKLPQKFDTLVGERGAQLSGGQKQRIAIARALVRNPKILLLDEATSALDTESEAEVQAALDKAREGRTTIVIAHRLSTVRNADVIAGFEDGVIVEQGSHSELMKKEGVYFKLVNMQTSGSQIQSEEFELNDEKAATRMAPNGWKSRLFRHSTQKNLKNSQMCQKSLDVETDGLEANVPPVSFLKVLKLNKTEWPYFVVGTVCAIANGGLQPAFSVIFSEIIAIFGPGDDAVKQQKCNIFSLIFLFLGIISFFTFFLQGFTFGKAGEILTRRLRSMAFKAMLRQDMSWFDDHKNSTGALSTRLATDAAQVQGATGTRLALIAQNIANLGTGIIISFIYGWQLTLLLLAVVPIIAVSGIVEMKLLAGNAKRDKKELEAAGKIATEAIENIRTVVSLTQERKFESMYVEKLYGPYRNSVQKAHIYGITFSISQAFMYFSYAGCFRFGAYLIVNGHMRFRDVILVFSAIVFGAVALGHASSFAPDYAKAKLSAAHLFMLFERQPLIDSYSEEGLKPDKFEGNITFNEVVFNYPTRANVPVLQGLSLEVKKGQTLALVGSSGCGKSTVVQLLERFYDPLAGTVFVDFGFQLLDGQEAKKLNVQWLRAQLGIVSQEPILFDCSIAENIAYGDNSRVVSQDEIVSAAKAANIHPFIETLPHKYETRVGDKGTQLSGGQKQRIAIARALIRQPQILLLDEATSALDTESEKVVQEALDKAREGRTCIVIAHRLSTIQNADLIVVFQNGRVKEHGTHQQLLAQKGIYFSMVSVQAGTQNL
Experiment: ABCB4 WT assay: HiBit protein expression
Details: HEK-293 cells stably expressing HiBit-tagged ABCB4 WT; 24 h treatment; top concentration 30 μM; read-out: ABCB4 WT EC50, Emax
Experimental: To assess activity against ABCB4, compounds were screened in an assay measuring protein expression, using cells transfected with cDNA encoding HiBit-tagged ABCB4 wild-type. […] Dose response curves include eleven doses with the top final concentration at 30 μM in 0.3% DMSO. […] The plates are rotated at room temperature for 2 minutes and incubated for 1 hour at 25° C. before luminescent signal is acquired using an EnVision Multimode Plate Reader (PerkinElmer). […]
Catalogue of EC50 readings, one per entry.

Would you please look over these solved cases?
Cc1cc(C2CC2)nc(C)c1Oc1nc(-c2cncc(C#N)c2)ccc1NS(=O)(=O)C1CC1 = < 1 µM
Cc1cc(C)c(Oc2cc(-c3cncc(Cl)c3)cnc2N(C)S(=O)(=O)c2cnn(C)c2)c(C)c1 = ≥ 25 µM
Cc1cc(C)c(Oc2nc(-c3cncc(Cl)c3)ccc2N(C)S(C)(=O)=O)c(C)c1 = < 1 µM
Cc1cc(C)c(Oc2nc(-c3cncc(Cl)c3)ccc2NS(=O)(=O)c2cnn(C)c2)c(C)c1 = ≥ 25 µM
Cc1nc(C2CC2)c(C(F)F)cc1Oc1nc(-c2cncc(C#N)c2)ccc1NS(C)(=O)=O = < 1 µM

Shift focus to the following entry.
Request: // fetch ABCB4 WT (Homo sapiens, UniProt P21439) EC50 for `Cc1cc(C2CC2)nc(C)c1Oc1nc(-n2cc(C#N)cn2)ccc1NS(C)(=O)=O`
Result: < 1 µM

----------
Target: UniProt O95255
Sequence (O95255 whole entry): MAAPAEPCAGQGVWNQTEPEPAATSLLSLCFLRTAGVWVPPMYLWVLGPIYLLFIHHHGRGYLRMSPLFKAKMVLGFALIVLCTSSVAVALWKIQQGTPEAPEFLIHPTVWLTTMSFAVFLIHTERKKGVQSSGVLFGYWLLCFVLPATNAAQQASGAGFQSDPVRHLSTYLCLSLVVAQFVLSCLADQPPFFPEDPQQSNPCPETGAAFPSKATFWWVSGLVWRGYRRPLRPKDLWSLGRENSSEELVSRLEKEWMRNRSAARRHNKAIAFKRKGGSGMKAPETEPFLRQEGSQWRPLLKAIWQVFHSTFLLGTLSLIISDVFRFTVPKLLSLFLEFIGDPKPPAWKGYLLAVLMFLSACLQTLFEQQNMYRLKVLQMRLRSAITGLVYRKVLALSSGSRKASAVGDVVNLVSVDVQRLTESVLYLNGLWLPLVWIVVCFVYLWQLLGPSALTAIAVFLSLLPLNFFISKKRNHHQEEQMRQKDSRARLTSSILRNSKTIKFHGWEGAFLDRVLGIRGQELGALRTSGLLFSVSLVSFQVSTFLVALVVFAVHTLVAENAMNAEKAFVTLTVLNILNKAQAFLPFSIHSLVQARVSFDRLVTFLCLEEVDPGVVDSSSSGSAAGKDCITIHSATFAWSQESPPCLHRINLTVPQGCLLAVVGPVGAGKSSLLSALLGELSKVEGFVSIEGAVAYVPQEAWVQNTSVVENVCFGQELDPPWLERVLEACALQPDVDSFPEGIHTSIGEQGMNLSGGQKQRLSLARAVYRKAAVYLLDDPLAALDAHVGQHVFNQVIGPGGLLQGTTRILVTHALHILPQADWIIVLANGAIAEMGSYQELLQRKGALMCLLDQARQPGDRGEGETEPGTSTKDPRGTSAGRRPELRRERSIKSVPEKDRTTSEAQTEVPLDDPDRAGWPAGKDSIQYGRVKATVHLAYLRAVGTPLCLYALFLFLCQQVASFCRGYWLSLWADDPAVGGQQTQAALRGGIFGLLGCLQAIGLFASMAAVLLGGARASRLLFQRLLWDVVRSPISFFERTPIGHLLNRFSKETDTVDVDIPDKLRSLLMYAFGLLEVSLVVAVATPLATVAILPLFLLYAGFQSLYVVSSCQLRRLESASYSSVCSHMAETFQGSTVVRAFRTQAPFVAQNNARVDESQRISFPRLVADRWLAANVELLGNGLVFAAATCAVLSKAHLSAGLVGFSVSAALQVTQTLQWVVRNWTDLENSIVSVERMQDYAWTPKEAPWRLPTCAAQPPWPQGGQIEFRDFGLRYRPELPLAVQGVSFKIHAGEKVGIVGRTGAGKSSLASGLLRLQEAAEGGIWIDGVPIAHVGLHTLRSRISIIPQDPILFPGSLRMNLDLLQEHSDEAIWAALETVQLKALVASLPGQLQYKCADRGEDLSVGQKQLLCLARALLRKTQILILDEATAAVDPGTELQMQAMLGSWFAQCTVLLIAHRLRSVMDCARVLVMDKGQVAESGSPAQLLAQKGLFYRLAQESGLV
Assay: ABCC6 WT assay: HiBit protein expression
Conditions: HEK-293 cells transiently expressing HiBit-tagged ABCC6 WT; 24 h treatment; top concentration 20 μM; read-out: ABCC6 WT EC50, Emax
pEC50: −log10 of the molar value.
ASSAY_READOUT: pEC50

Would you please look over these solved cases?
Cc1cc(C)c(Oc2nc(N3CCN(C(=O)OC(C)C)CC3)ccc2NS(C)(=O)=O)c(C)c1 = 5.00 to 6.00
Cc1cc(C)c(Oc2nc(-c3cncc(Cl)c3)ccc2NS(=O)(=O)C(C)C)c(C)c1 = > 6.00
Cc1cc(C)c(Oc2nc(-c3cncc(C#N)c3)ccc2NS(C)(=O)=O)c(OC2CC2)n1 = > 6.00

Shift focus to the following entry.
Request: // fetch UniProt O95255 pEC50 for `Cc1cc(C(F)(F)F)nc(C2CC2)c1Oc1nc(-c2cncc(Cl)c2)ccc1NS(C)(=O)=O`
Result: > 6.00

----------
Biological target: UniProt O95255
Experiment: ABCC6 WT assay: HiBit protein expression
Settings: HEK-293 cells transiently expressing HiBit-tagged ABCC6 WT; 24 h treatment; top concentration 20 μM; read-out: ABCC6 WT EC50, Emax
Method: To assess activity against ABCC6, compounds were screened in an assay measuring protein expression, using cells transfected with cDNA encoding HiBit-tagged ABCC6 wild-type. […] Dose response curves include ten doses with the top final concentration at 20 μM in 0.15% DMSO. […] The plates are rotated at room temperature for 10 minutes and luminescent signal is acquired using an EnVision Multimode Plate Reader (PerkinElmer). […]
Catalogue of EC50 readings, one per entry.

Would you please look over these solved cases?
Cc1cc(C)c(Oc2nc(-c3cncc(S(C)(=N)=O)c3)ccc2NS(C)(=O)=O)c(C)n1 (stereo not shown) = ≥ 25000 nM
Cc1cc(C)c(Oc2nc(-c3cncc(Cl)c3)ccc2S(=O)(=O)NCc2cc(C(F)(F)F)ccn2)c(C)c1 = 1000 to 10000 nM

Request: // fetch UniProt O95255 EC50 for `Cc1nc(C)c(Oc2nc(-c3cncc(C(F)F)c3)ccc2NS(C)(=O)=O)c(C)n1`
Result: 1000 to 10000 nM

Request: // fetch UniProt O95255 EC50 for `Cc1cc(C2CC2)nc(C)c1Oc1nc(-n2cnc(C#N)c2)ccc1NS(C)(=O)=O`
Result: < 1000 nM

----------
Target: ABCA4 P1380L (Homo sapiens, UniProt P78363, P1380L)
Construct: expressed in transfected cells
Test: A4 correction dose-response assay: ABCA4 P1380L HiBit protein expression
Assay type: cell-based
Conditions: HEK-293 cells stably expressing HiBit-tagged ABCA4 P1380L; 24 h treatment; top concentration 30 μM; read-out: ABCA4 P1380L EC50, Emax
pEC50: −log10 of the molar value.
ASSAY_READOUT: pEC50

Would you please look over these solved cases?
Cc1cc(C(F)(F)F)nc(C2CC2)c1Oc1nc(-c2cncc(Cl)c2)ccc1N(C)S(C)(=O)=O = < 4.60
Cc1cc(C)c(Oc2nc(-c3cncc(N4CC(F)C4)c3)ccc2NS(C)(=O)=O)c(C)n1 = > 6.00
Cc1nc(C(F)(F)F)nc(C)c1Oc1nc(-c2cncc(C#N)c2)ccc1NS(C)(=O)=O = > 6.00
CNS(=O)(=O)c1ccc(-c2cncc(C#N)c2)nc1Oc1nc(C)sc1C1CC1 = < 4.60

Request: Reported pEC50, compound `Cc1nc(C)c(C2CC2)cc1Oc1nc(-c2cncc(C#N)c2)ccc1NS(C)(=O)=O` : ____
Result: 5.00 to 6.00

Request: Reported pEC50, compound `Cc1nc(C)c(Oc2nc(-c3cncc(C(F)(F)F)c3)ccc2NS(C)(=O)=O)c(C)n1` : ____
Result: 5.00 to 6.00

Request: Reported pEC50, compound `Cc1cc(C)c(Oc2nc(-c3cncc(Cl)c3)ccc2NS(C)(=O)=O)c(C)n1` : ____
Result: > 6.00

Request: Reported pEC50, compound `Cc1cc(C)c(Oc2nc(N3CC4(CN(C(=O)C5CC5)C4)C3)ccc2NS(C)(=O)=O)c(C)c1` : ____
Result: < 4.60

Request: Reported pEC50, compound `Cc1cc(C)c(Oc2nc(-c3cncc(C#N)c3)ccc2N(C)S(C)(=O)=O)c(C)n1` : ____
Result: 5.00 to 6.00

Request: Reported pEC50, compound Cc1cc(C)c(Oc2nc(-c3cncc(Cl)c3)ccc2S(=O)(=O)NC(c2ccccn2)C(F)(F)F)c(C)c1 (single isomer, unassigned) [Compound I-79] : ____
Result: > 4.60

Request: Reported pEC50, compound Cc1cc(C)c(Oc2nc(-c3cncc(C#N)c3)ccc2S(C)(=N)=O)c(C)c1 (stereo not drawn) : ____
Result: > 6.00

Request: Reported pEC50, compound Cc1cc(C)c(Oc2nc(-c3cccc(C#N)c3)ccc2S(=N)(=O)C2CC2)c(C)n1 (stereo not drawn) : ____
Result: 5.00 to 6.00

Request: Reported pEC50, compound `Cc1cc(C)c(Oc2nc(-c3cncc(Cl)c3)ccc2N(C)S(=O)(=O)c2cccnc2)c(C)c1` : ____
Result: 5.00 to 6.00

Request: Reported pEC50, compound `Cc1cc(C)c(Oc2nc(N3CCn4c(cnc4C)C3)ccc2NS(C)(=O)=O)c(C)c1` : ____
Result: > 6.00

Request: Reported pEC50, compound `Cc1nc(C(F)(F)F)nc(C2CC2)c1Oc1nc(-c2cncc(C#N)c2)ccc1S(=O)(=O)NC1CC1` : ____
Result: 5.00 to 6.00

Request: Reported pEC50, compound `Cc1nc(C)c(Oc2nc(-c3cncc(C#N)c3)ccc2NS(C)(=O)=O)c(C2CC2)n1` : ____
Result: 5.00 to 6.00

Request: Reported pEC50, compound `CNS(=O)(=O)c1ncc(-c2cncc(Cl)c2)nc1Oc1c(C)cc(C)c(Cl)c1C` : ____
Result: < 4.60

Request: Reported pEC50, compound `Cc1cc(C)c(Oc2nc(-c3cncc(Cl)c3)ccc2NS(=O)(=O)c2cnn(C)c2)c(C2CC2)c1` : ____
Result: < 4.60

Request: Reported pEC50, compound `Cc1cc(C)c(Oc2nc(-c3cncc(Cl)c3)ccc2S(=O)(=O)N(C)C)c(C)c1` : ____
Result: < 4.60
